Target: human M1R (Homo sapiens)
Sequence (P11229 1-460): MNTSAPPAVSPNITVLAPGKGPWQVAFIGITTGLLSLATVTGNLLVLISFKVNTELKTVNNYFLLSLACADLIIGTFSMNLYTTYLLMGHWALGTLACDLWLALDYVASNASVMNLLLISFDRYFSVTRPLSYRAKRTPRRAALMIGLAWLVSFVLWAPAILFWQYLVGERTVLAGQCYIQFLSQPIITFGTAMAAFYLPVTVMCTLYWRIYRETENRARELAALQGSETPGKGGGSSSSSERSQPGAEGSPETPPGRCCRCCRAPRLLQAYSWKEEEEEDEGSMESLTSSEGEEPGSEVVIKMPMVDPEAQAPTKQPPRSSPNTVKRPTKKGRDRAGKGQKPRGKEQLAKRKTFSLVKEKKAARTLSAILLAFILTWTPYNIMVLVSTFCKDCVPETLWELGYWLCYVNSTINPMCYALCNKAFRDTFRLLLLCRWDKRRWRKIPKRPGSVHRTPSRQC
Format: binding
Conditions: read-out: Estimated Ki at M1Rs; estimated from 1 and 10 μM screens
measure.name: Ki (µM)
Give a bare numeral; the unit µM is implied.

Memo: CCCCC(C(=O)c1ccc2c(c1)OCO2)N1CCCC1 (stereo not shown) [MDPHP] , reported Ki: 3.63
